Listed next: entries and their corresponding IC50.
- Test system: U937 cells
- measurement-description: Human U937 cellular necroptosis assay
- Format: cell-based
- assay-conditions: U-937; U937 cells stimulated with 25 ng/mL human TNFalpha and 25 μM z-VAD-FMK; 22 hr; Cell Titer-Glo viability
# value in nM; strip the unit string

O=C1c2nn(Cc3cccc(F)c3F)c(Cl)c2CCN1c1cc(CNCC(F)(F)F)cc(Cl)c1F	1230
O=C(Nc1ccccc1F)c1n[nH]c(Cc2ccccc2)n1	6230
O=C(Nc1cc(Cn2cnc3ccccc32)cc(Cl)c1F)c1ncn(Cc2ccccc2)n1	3860

Lab note: next compound to report on.
input: Look up and state reported IC50 for Cc1cnc(Cn2cnc(C(=O)Nc3cccc(Cl)c3F)n2)cn1
output: 2560
